- TEST NAME: Pharmacokinetic study in Sprague Dawley rats
- Type: in vivo
- CONDITION DETAILS: rat, plasma, iv, I.V. (1 mg/kg), read-out: Vdss
QUANTITY KIND: Vd
# include the unit after the value

Exam item: Report Vd for [2H]C([2H])([2H])NC(=O)c1nnc(NC(=O)C2CC2)cc1Nc1cccc(-c2ncn(C)n2)c1OC [control, BMS-986165, reference compound] please.
Marked response: 0.933 L/kg

====

- TEST NAME: Pharmacokinetic study in Sprague Dawley rats
- Assay type: in vivo
- CONDITION DETAILS: rat, plasma, iv, I.V. (1 mg/kg)
QUANTITY KIND: half-life (h)
Could you give me the number in h? Just the number is fine.

Exam item: Report half-life for [2H]C([2H])([2H])NC(=O)c1nnc(NC(=O)C2CC2)cc1Nc1cccc(-c2ncn(C)n2)c1OC [control, BMS-986165, reference compound] please.
Marked response: 2.42

====

- TEST NAME: Pharmacokinetic study in C57BL/6 mice
- Type: in vivo, male C57BL/6 mice
- CONDITION DETAILS: male, mouse, plasma, iv, I.V. (2 mg/kg)
QUANTITY KIND: half-life (h)
Could you give me the number in h? Just the number is fine.

Exam item: Report half-life for [2H]C([2H])([2H])NC(=O)c1nnc(NC(=O)C2CC2)cc1Nc1cccc(-c2ncn(C)n2)c1OC [control, BMS-986165, reference compound] please.
Marked response: 2.19

====

- TEST NAME: Pharmacokinetic study in Beagle dogs
- Type: in vivo
- CONDITION DETAILS: dog, plasma, Oral (2 mg/kg)
QUANTITY KIND: bioavailability
# include the unit after the value

Exam item: Report bioavailability for [2H]C([2H])([2H])NC(=O)c1nnc(NC(=O)C2CC2)cc1Nc1cccc(-c2ncn(C)n2)c1OC [control, BMS-986165, reference compound] please.
Marked response: 35.5%

====

- TEST NAME: Pharmacokinetic study in Sprague Dawley rats
- Format: in vivo
- CONDITION DETAILS: rat, plasma, Oral (5 mg/kg)
QUANTITY KIND: Tmax
# include the unit after the value

Exam item: Report Tmax for [2H]C([2H])([2H])NC(=O)c1nnc(NC(=O)C2CC2)cc1Nc1cccc(-c2ncn(C)n2)c1OC [control, BMS-986165, reference compound] please.
Marked response: 1 h

====

- TEST NAME: Pharmacokinetic study in Sprague Dawley rats
- Type: in vivo
- CONDITION DETAILS: rat, plasma, iv, I.V. (1 mg/kg)
QUANTITY KIND: AUC

Exam item: Report AUC for [2H]C([2H])([2H])NC(=O)c1nnc(NC(=O)C2CC2)cc1Nc1cccc(-c2ncn(C)n2)c1OC [control, BMS-986165, reference compound] please.
Marked response: 1970 ng·h/mL

====

Please respond with reported C0 for every item in the list.
- TEST NAME: Pharmacokinetic study in Sprague Dawley rats
- Type: in vivo
- CONDITION DETAILS: rat, plasma, iv, I.V. (1 mg/kg)
Could you give me the number in ng/mL? Just the number is fine.

Exam item: Report C0 for [2H]C([2H])([2H])CC(=O)c1cnc(Nc2ccc(C(C)(C)O)c(F)n2)cc1Nc1nccc(-c2ncn(C([2H])([2H])[2H])n2)c1OC [Example 201] please.
Marked response: 1190

Exam item: Report C0 for [2H]C([2H])([2H])CC(=O)c1cnc(Nc2cccc(C#N)n2)cc1Nc1nccc(-c2ncn(C([2H])([2H])[2H])n2)c1OC [Example 199] please.
Marked response: 414

Exam item: Report C0 for [2H]C([2H])([2H])CC(=O)c1cnc(NC(=O)C2CC2)cc1Nc1nccc(-c2ncn(C([2H])([2H])[2H])n2)c1OC [Example 200] please.
Marked response: 1030

Exam item: Report C0 for [2H]C([2H])([2H])CC(=O)c1cnc(Nc2ccc(C(C)(C)O)c(F)n2)cc1Nc1cccc(-c2ncn(C([2H])([2H])[2H])n2)c1OC [Example 202] please.
Marked response: 1980

====

- TEST NAME: Pharmacokinetic study in Beagle dogs
- Format: in vivo
- CONDITION DETAILS: dog, plasma, iv, I.V. (0.5 mg/kg)
QUANTITY KIND: clearance

Exam item: Report clearance for `[2H]C([2H])([2H])CC(=O)c1cnc(NC(=O)C2CC2)cc1Nc1nccc(-c2ncn(C([2H])([2H])[2H])n2)c1OC` please.
Marked response: 8.17 mL/min/kg

====

Please respond with reported AUC for every item in the list.
- TEST NAME: Pharmacokinetic study in C57BL/6 mice
- Type: in vivo, male C57BL/6 mice
- CONDITION DETAILS: male, mouse, plasma, Oral (10 mg/kg)
Could you give me the number in ng·h/mL? Just the number is fine.

Exam item: Report AUC for [2H]C([2H])([2H])CC(=O)c1cnc(Nc2ccc(C(C)(C)O)c(F)n2)cc1Nc1cccc(-c2ncn(C([2H])([2H])[2H])n2)c1OC [Example 202] please.
Marked response: 6400

Exam item: Report AUC for [2H]C([2H])([2H])NC(=O)c1nnc(NC(=O)C2CC2)cc1Nc1cccc(-c2ncn(C)n2)c1OC [control, BMS-986165, reference compound] please.
Marked response: 8870

Exam item: Report AUC for [2H]C([2H])([2H])CC(=O)c1cnc(NC(=O)C2CC2)cc1Nc1cccc(-c2ncn(C([2H])([2H])[2H])n2)c1OC [Example 195] please.
Marked response: 16700

Exam item: Report AUC for [2H]C([2H])([2H])CC(=O)c1cnc(NC(=O)C2CC2)cc1Nc1nccc(-c2ncn(C([2H])([2H])[2H])n2)c1OC [Example 200] please.
Marked response: 19300

====

- TEST NAME: Pharmacokinetic study in Sprague Dawley rats
- Assay type: in vivo
- CONDITION DETAILS: rat, plasma, Oral (5 mg/kg)
QUANTITY KIND: AUC (ng·h/mL)
Could you give me the number in ng·h/mL? Just the number is fine.

Exam item: Report AUC for [2H]C([2H])([2H])NC(=O)c1nnc(NC(=O)C2CC2)cc1Nc1cccc(-c2ncn(C)n2)c1OC [control, BMS-986165, reference compound] please.
Marked response: 3200

====

- TEST NAME: Pharmacokinetic study in cynomolgus monkeys
- Assay type: in vivo
- CONDITION DETAILS: cynomolgus monkey, plasma, Oral (2 mg/kg), NA: no detectable, read-out: Tmax
QUANTITY KIND: Tmax (h)
Could you give me the number in h? Just the number is fine.

Exam item: Report Tmax for [2H]C([2H])([2H])NC(=O)c1nnc(NC(=O)C2CC2)cc1Nc1cccc(-c2ncn(C)n2)c1OC [control, BMS-986165, reference compound] please.
Marked response: 5.33

====

- TEST NAME: Pharmacokinetic study in Beagle dogs
- Assay type: in vivo
- CONDITION DETAILS: dog, plasma, iv, I.V. (1 mg/kg)
QUANTITY KIND: C0 (ng/mL)
Could you give me the number in ng/mL? Just the number is fine.

Exam item: Report C0 for [2H]C([2H])([2H])NC(=O)c1nnc(NC(=O)C2CC2)cc1Nc1cccc(-c2ncn(C)n2)c1OC [control, BMS-986165, reference compound] please.
Marked response: 559

Exam item: Report C0 for `[2H]C([2H])([2H])CC(=O)c1cnc(Nc2ccc(C(C)(C)O)c(F)n2)cc1Nc1cccc(-c2ncn(C([2H])([2H])[2H])n2)c1OC` please.
Marked response: 469

Exam item: Report C0 for `[2H]C([2H])([2H])CC(=O)c1cnc(Nc2cccc(C#N)n2)cc1Nc1cccc(-c2ncn(C([2H])([2H])[2H])n2)c1OC` please.
Marked response: 182

Exam item: Report C0 for `[2H]C([2H])([2H])CC(=O)c1cnc(Nc2ccc(C(C)(C)O)c(F)n2)cc1Nc1nccc(-c2ncn(C([2H])([2H])[2H])n2)c1OC` please.
Marked response: 458

Exam item: Report C0 for `[2H]C([2H])([2H])CC(=O)c1cnc(NC(=O)C2CC2)cc1Nc1cccc(-c2ncn(C([2H])([2H])[2H])n2)c1OC` please.
Marked response: 185

Exam item: Report C0 for `[2H]C([2H])([2H])CC(=O)c1cnc(Nc2cccc(C#N)n2)cc1Nc1nccc(-c2ncn(C([2H])([2H])[2H])n2)c1OC` please.
Marked response: 334

====

Please respond with reported AUC for every item in the list.
- TEST NAME: Pharmacokinetic study in C57BL/6 mice
- Format: in vivo, male C57BL/6 mice
- CONDITION DETAILS: male, mouse, plasma, iv, I.V. (2 mg/kg)
Could you give me the number in ng·h/mL? Just the number is fine.

Exam item: Report AUC for [2H]C([2H])([2H])NC(=O)c1nnc(NC(=O)C2CC2)cc1Nc1cccc(-c2ncn(C)n2)c1OC [control, BMS-986165, reference compound] please.
Marked response: 2040

Exam item: Report AUC for [2H]C([2H])([2H])CC(=O)c1cnc(NC(=O)C2CC2)cc1Nc1cccc(-c2ncn(C([2H])([2H])[2H])n2)c1OC [Example 195] please.
Marked response: 7990

Exam item: Report AUC for [2H]C([2H])([2H])CC(=O)c1cnc(Nc2ccc(C(C)(C)O)c(F)n2)cc1Nc1cccc(-c2ncn(C([2H])([2H])[2H])n2)c1OC [Example 202] please.
Marked response: 1910

Exam item: Report AUC for [2H]C([2H])([2H])CC(=O)c1cnc(NC(=O)C2CC2)cc1Nc1nccc(-c2ncn(C([2H])([2H])[2H])n2)c1OC [Example 200] please.
Marked response: 4480
